// data source = BigSolDB 2.1

- test-context: in water, 308.2 K
quantity: solubility (mole fraction)
Format: numeric value only, no unit, no commentary.

Cc1ccc(-c2cc(C(F)(F)F)nn2-c2ccc(S(N)(=O)=O)cc2)cc1 1.27e-07

The record that follows has no solubility (mole fraction) shown yet.
# input // lookup solubility (mole fraction) for O=C1NC(=O)C(c2ccccc2)(c2ccccc2)N1
# output 1.88e-06

---

- test-context: in ethylene glycol, 298.2 K
quantity: solubility (mole fraction)
Number, no unit, nothing else.

# input Which solubility (mole fraction) is listed for Cc1c(O)c(=O)ccn1C ?
# output 0.00737

---

- test-context: in DMAc, 283.15 K
quantity: solubility (mole fraction)
// return just the number, without any unit appended

# input GET /values?readout=solubility (mole fraction)&item= CCC1=C(C)CN(C(=O)NCCc2ccc(S(=O)(=O)NC(=O)NC3CCC(C)CC3)cc2)C1=O (stereo unspecified)
# output 0.0124

---

- test-context: in ethyl acetate, 293.15 K
quantity: solubility (mole fraction)
// return just the number, without any unit appended

# input Which measured solubility (mole fraction) value corresponds to OCCCCCCO ?
# output 0.0512

---

- test-context: in DMAc, 313.15 K
quantity: solubility (mole fraction)
Answer as a number with no unit attached.

# input Record request: solubility (mole fraction) value, item CCC1=C(C)CN(C(=O)NCCc2ccc(S(=O)(=O)NC(=O)NC3CCC(C)CC3)cc2)C1=O (stereo unspecified)
# output 0.0298

---

- test-context: in THF, 288.15 K
quantity: solubility (mole fraction)

# input So what's the measured solubility (mole fraction) for this one? O=c1[nH]cc(F)c(=O)[nH]1
# output 0.000286

---

- test-context: in cyclohexane, 319.4 K
quantity: solubility (mole fraction)
Please give the numeric answer without any surrounding text.

# input Look up solubility (mole fraction): Cc1ccccc1C(=O)O
# output 0.0615

---

- test-context: in PEG-400, 303.15 K
quantity: solubility (mole fraction)
Hey, just send me the number, nothing else.

# input Suppose we examine the compound Nc1ccc(S(=O)(=O)Nc2ncccn2)cc1 ; what solubility (mole fraction) value has been reported?
# output 0.0132

---

Entries annotated with measured solubility (mole fraction)
- test-context: in n-pentanol, 298.15 K
Provide a numeric answer; units are not to be included.

c1ccc2cc3ccccc3cc2c1 0.0011

// switching to the query molecule
# input Given the entry O=C(C(=O)c1ccccc1)c1ccccc1 , report its measured solubility (mole fraction).
# output 0.015

---

- test-context: in THF, 303.15 K
quantity: solubility (mole fraction)
// no unit string in output, number only

# input Given O=c1[nH]cc(F)c(=O)[nH]1 , state its recorded solubility (mole fraction).
# output 0.000618

---

- test-context: in methanol, 298.15 K
# binarize solubility (mole fraction): threshold 0.1 inclusive, high side TRUE, low side FALSE

Solved cases (3 shown):
molecule	group
NCCC(=O)O	TRUE
CO[C@H]1O[C@H](CO)[C@@H](O)[C@H](O)[C@H]1O	FALSE
CN1COCN(Cc2cnc(Cl)s2)C1=N[N+](=O)[O-]	FALSE

# input Could you please find out whether COc1ccccc1OCC(O)COC(N)=O (stereo not given) has solubility (mole fraction) that meets 0.1 or exceeds it?
# output FALSE

# input Please tell me: is the molecule O=C(O)c1ccccc1O at or over 0.1 in terms of solubility (mole fraction)?
# output TRUE

---

- test-context: in water, 294.85 K
quantity: solubility (mole fraction)
Format: numeric value only, no unit, no commentary.

# input Entry F[P-](F)(F)(F)(F)F.F[P-](F)(F)(F)(F)F.c1cc[n+](CCCCCC[n+]2ccccc2)cc1 has what solubility (mole fraction)?
# output 4.2e-05

---

- test-context: in n-propanol, 283.15 K
quantity: solubility (mole fraction)
No unit in the answer, please; the number alone is enough.

# input So what does the record say about solubility (mole fraction) for C/C=C/C=C/C(=O)O ?
# output 0.0201

---

- test-context: in water, 299.15 K
quantity: solubility (mole fraction)
Write the number on its own, no unit after it.

# input Tell me the measured solubility (mole fraction) of F[P-](F)(F)(F)(F)F.F[P-](F)(F)(F)(F)F.c1cc[n+](CCCCCC[n+]2ccccc2)cc1 , please.
# output 5.4e-05

---

Reported solubility (mole fraction) is given for each of the following compounds.
- test-context: in n-butanol, 298.15 K
In your answer, state the number alone without any accompanying words.

O=C(C(=O)c1ccccc1)c1ccccc1 0.0131

# input Recorded solubility (mole fraction) of c1ccc2cc3ccccc3cc2c1 , please.
# output 0.000801

---

- test-context: in acetic acid, 303.2 K
quantity: solubility (mole fraction)
Answer with a bare number; do not write a unit.

# input # solubility (mole fraction) lookup, item O=C1c2ccccc2C(=O)N1O
# output 0.00394

---

- test-context: in ethanol, 333.2 K
Each record here notes measured solubility (mole fraction).
In your answer, state the number alone without any accompanying words.

C1=Cc2nc1c(-c1ccccc1)c1ccc([nH]1)c(-c1ccccc1)c1nc(c(-c3ccccc3)c3ccc([nH]3)c2-c2ccccc2)C=C1 4.01e-06

# input I am curious: what solubility (mole fraction) value has been reported for Clc1ccc(-c2c3nc(c(-c4ccc(Cl)cc4)c4ccc([nH]4)c(-c4ccc(Cl)cc4)c4nc(c(-c5ccc(Cl)cc5)c5ccc2[nH]5)C=C4)C=C3)cc1 ?
# output 2.63e-06

---

- test-context: in water, 283.15 K
solubility (mole fraction) of 0.004 or higher: rule met. Under 0.004: rule not met.

Known results for compounds:
compound	group
CC1(C)S[C@@H]2[C@H](N)C(=O)N2[C@H]1C(=O)O	rule not met
CSCC[C@H](N)C(=O)O	rule met
C[C@@H](O)[C@H]1C(=O)N2C(C(=O)O)=C(S[C@@H]3CN[C@H](C(=O)N(C)C)C3)[C@H](C)[C@H]12.O.O.O	rule not met
Oc1cc(O)c2cc1Cc1cc(c(O)cc1O)Cc1cc(c(O)cc1O)Cc1cc(c(O)cc1O)C2	rule not met
N[C@@H](Cc1cnc[nH]1)C(=O)O	rule not met

# input Does the compound CC(C)C[C@H](CN)CC(=O)O have recorded solubility (mole fraction) that is 0.004 or more?
# output rule not met

# input Check this compound for solubility (mole fraction) at or above 0.004: C[C@@H](O)[C@H]1C(=O)N2C(C(=O)[O-])=C(SC3Cn4cnc[n+]4C3)[C@H](C)[C@H]12 (stereo partly drawn)
# output rule not met

# input Textbook exercise: given the entry Cc1ncc(CO)c(CO)c1O.Cl , state whether its solubility (mole fraction) is greater than or equal to 0.004.
# output rule met

---

- test-context: in acetonitrile, 298.15 K
quantity: solubility (mole fraction)
Number only, please.

# input What value of solubility (mole fraction) has been reported for the following compound? O=C1C[C@@H](c2ccc(O)cc2)Oc2cc(O)cc(O)c21
# output 0.0473

---

solubility (mole fraction) values for the compounds below.
- test-context: in acetic acid, 363.2 K
# print the numeric value only

O=C(O)c1ccc(C(=O)O)c(C(=O)O)c1 0.0106

# input compound: O=C1c2ccccc2C(=O)N1O ; wanted: its solubility (mole fraction)
# output 0.0155

---

- test-context: in chlorocyclohexane, 298.15 K
quantity: solubility (mole fraction)
Note: the reply should be a number with no unit written.

# input State the recorded solubility (mole fraction) for this entry: c1ccc2c(c1)[nH]c1ccccc12
# output 0.00291

---

- test-context: in transcutol, 328.15 K
quantity: solubility (mole fraction)

# input What solubility (mole fraction) value was documented for this compound, O=C1Nc2ccccc2C1=O ?
# output 0.579

---

Item-by-item account of solubility (mole fraction)
- test-context: in methanol, 293.15 K
Answer with the value's number alone.

compound	solubility (mole fraction)
CN1COCN(Cc2cnc(Cl)s2)C1=N[N+](=O)[O-]	0.00141
CCc1ccc(CCOc2ccc(CC3SC(=O)NC3=O)cc2)nc1.Cl (stereo unspecified)	0.00754
O=c1c(-c2ccc(O)cc2)coc2c([C@@H]3O[C@H](CO)[C@@H](O)[C@H](O)[C@H]3O)c(O)ccc12	0.00714

# input // query solubility (mole fraction) value for entry CO[C@H]1O[C@H](CO)[C@@H](O)[C@H](O)[C@H]1O
# output 0.00941

# input Name the reported solubility (mole fraction) value associated with the compound Cc1cnc(NC(=O)C2=C(O)c3ccccc3S(=O)(=O)N2C)s1
# output 4.02e-05

# input Bench note: what solubility (mole fraction) did NCCC(=O)O show?
# output 0.122

---

- test-context: in PEG-400, 328.15 K
quantity: solubility (mole fraction)
Please give only the number in your answer, with no unit.

# input Looking for the measured solubility (mole fraction) of O=C1Nc2ccccc2C1=O , can you help?
# output 0.132

---

- test-context: in ethanol, 298.2 K
Let's look at some compounds and their measured solubility (mole fraction).
Please state the value as a number alone, without comment.

# input What value of measured solubility (mole fraction) is listed for Cc1c(O)c(=O)ccn1C ?
# output 0.0014

# input Reported solubility (mole fraction), compound CC(=O)N1CCN(c2ccc(OC[C@@H]3CO[C@@](Cn4ccnc4)(c4ccc(Cl)cc4Cl)O3)cc2)CC1 (racemic) : ____
# output 0.00358

# input # query: solubility (mole fraction) of entry O=C(O)c1ccc(-n2nc(-c3ccccc3O)nc2-c2ccccc2O)cc1
# output 0.0143
